molecular target: T1, HLA-DR DRB1*0101 (human); assay: radiolabeled-peptide inhibition, purified HLA-DR; conditions: remark: other sources report otherwise
T1 chain 1: not shown
T1 chain 2: not shown
test readout: pIC50
# pIC50 is unitless: minus log10 of the molar concentration; print number only

Q. GET /values?readout=pIC50&item= SLTLQGLGISWLGLR [9019.0055]
A. 7.03
